# Run Description: NBI-750142 concentration in cynomolgus monkey plasma by LC-MS/MS
# Format: in vivo, cynomolgus monkeys (Macaca fascicularis)
# Reported Conditions: cynomolgus monkey, intravenous, 0.78 mg/kg, GC786, 0.78 mg/kg i.v.
Readout: concentration at 60 min (ng/mL)
One number for each entry, in ng/mL.

Ask | Record request: concentration at 60 min value, item COc1cc2c(cc1OC)[C@H]1CN(C)[C@H](CC(C)(C)C)CN1CC2
Reply | 65.2

====

# Run Description: NBI-750142 concentration in cynomolgus monkey plasma by LC-MS/MS
# Type: in vivo, cynomolgus monkeys (Macaca fascicularis)
# Reported Conditions: cynomolgus monkey, intravenous, 0.026 mg/kg, GC786, 0.026 mg/kg i.v.
Readout: concentration at 90 min (ng/mL)
One number for each entry, in ng/mL.

Ask | Record request: concentration at 90 min value, item COc1cc2c(cc1OC)[C@H]1CN(C)[C@H](CC(C)(C)C)CN1CC2 [NBI-750142]
Reply | 2.56

====

# Run Description: NBI-750142 concentration in cynomolgus monkey plasma by LC-MS/MS
# Assay type: in vivo, cynomolgus monkeys (Macaca fascicularis)
# Reported Conditions: cynomolgus monkey, intravenous, 0.26 mg/kg, LC206, 0.26 mg/kg i.v.
# Description: During each scan, whole blood PK samples were collected (in K2 EDTA tubes) at pre-dose (−5 min), and post-dose at 1 (end of bolus), 30, 60 (just prior to [^18F]AV-133 radiopharmaceutical administration), 90, 120, 150, 180 (end of scan) minutes after test article administration. PK samples were approximately 1 mL each (8 mL total, including pre-dose sample). […] NBI-750142 concentration in cynomolgus monkey plasma samples was analyzed using a qualified LC-MS/MS bioanalytical method. […]
Readout: concentration at 150 min (ng/mL)
Numbers only, in ng/mL.

Ask | Record request: concentration at 150 min value, item COc1cc2c(cc1OC)[C@H]1CN(C)[C@H](CC(C)(C)C)CN1CC2 [NBI-750142]
Reply | 37.7

====

# Run Description: NBI-750142 concentration in cynomolgus monkey plasma by LC-MS/MS
# Type: in vivo, cynomolgus monkeys (Macaca fascicularis)
# Reported Conditions: cynomolgus monkey, intravenous, 0.26 mg/kg, GC786, 0.26 mg/kg i.v.
Readout: concentration at 150 min (ng/mL)
Numbers only, in ng/mL.

Ask | Record request: concentration at 150 min value, item COc1cc2c(cc1OC)[C@H]1CN(C)[C@H](CC(C)(C)C)CN1CC2 [NBI-750142]
Reply | 15.2

====

# Run Description: NBI-750142 concentration in cynomolgus monkey plasma by LC-MS/MS
# Type: in vivo, cynomolgus monkeys (Macaca fascicularis)
# Reported Conditions: cynomolgus monkey, intravenous, 0.026 mg/kg, GC786, 0.026 mg/kg i.v.
Readout: concentration at 60 min (ng/mL)
Answers are plain numbers, in ng/mL.

Ask | Record request: concentration at 60 min value, item COc1cc2c(cc1OC)[C@H]1CN(C)[C@H](CC(C)(C)C)CN1CC2
Reply | 2.24

====

# Run Description: NBI-750142 concentration in cynomolgus monkey plasma by LC-MS/MS
# Format: in vivo, cynomolgus monkeys (Macaca fascicularis)
# Reported Conditions: cynomolgus monkey, intravenous, 0.26 mg/kg, LC206, 0.26 mg/kg i.v.
Readout: concentration at 90 min (ng/mL)
One number for each entry, in ng/mL.

Ask | Record request: concentration at 90 min value, item COc1cc2c(cc1OC)[C@H]1CN(C)[C@H](CC(C)(C)C)CN1CC2
Reply | 38.3
